# System: K4 kissing-loop RNA reporter
# Measurement Description: apparent KD of K4 kissing-loop reporter; higher = weaker reporter binding
# Cond: Eterna round: R107; input ligand: none
So I've got a bunch of sequences here, and I need their apparent KD of K4 kissing-loop reporter values.
# number only, unit nM dropped from output

Find the measured apparent KD of K4 kissing-loop reporter of UUUUAUUCGUACUUCUAGUGAUGUUAGAUUCGAGGACCGGUACGGCCGCCACUCGUUAAGGCGAUUUUAUAUUUUUUAUUCUUUA [JR_SSTryptoA_Sub012] with K4 kissing-loop RNA reporter as test system.
179

Find the measured apparent KD of K4 kissing-loop reporter of GUAUGUGGAAACACGUACUUAUAUCCUAGGCAGGAUAUGCGGAAACGCAGAAGGGCCACCGGCGAGUUUAUCCAGUGAUGUUGGA [Ex FMN A 8] with K4 kissing-loop RNA reporter as test system.
294

Find the measured apparent KD of K4 kissing-loop reporter of UUGUAUAGUGGAAGGAGCGCGUGGGCGCAGUGAUGUUGCGCCCGACAUCACUUCAACUUAACGCAGGUAGGUCGCCAUUGUAAUG [Arginine B (Excl) V5] with K4 kissing-loop RNA reporter as test system.
113

Find the measured apparent KD of K4 kissing-loop reporter of `GCUAGCAAUGCAGGAUAUUAAAACGAGUGAUGUUCGGUACCGAGGAUGGGAAACCAUCCUCGGUAAUAAGAAGGGCAUUGCUAGC` with K4 kissing-loop RNA reporter as test system.
194

* * *

# System: K4 kissing-loop RNA reporter;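 further: bound reporter read as fluorescence of individual clusters on recovered sequencing chips by microscopy, with normalized cluster intensities fitted with a binding model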
# Measurement Description: apparent KD of K4 kissing-loop reporter; higher = weaker reporter binding
# Cond: Eterna round: R107; input ligand: FMN 200 uM
Parameter: apparent KD of K4 kissing-loop reporter (µM)
# number only, unit µM dropped from output

Return reported apparent KD of K4 kissing-loop reporter. Input sequence: CUUGAUCGAGGAAGGAGCGGGCCGUCAUUGAGCGCAGUGAUGUUGCGUUCGACUAGUCGAGCCCAGGUAGGUCGCCUGGAGUAAG [Lazalaa]
0.0849

Return reported apparent KD of K4 kissing-loop reporter. Input sequence: GGGCGCGGCGCGGCCGCCACUGCGCCUGGGUGCUCGCCGAGUGAUGUUCGUCGGCGGUUGGGUGGCAGGACCGGGUGCCGGCCCG [BDazzled - #17 SS Tryptophan B]
1.58

Return reported apparent KD of K4 kissing-loop reporter. Input sequence: AAAAGCAGAAAGACGCAUUAAAGAACCGAAGGAGCGCGGAAUUACGCAGGUAGGUCGCGGGAUAAGCGAGUGAUGUUCGCGAAAG [Arginine A Same State; Euphoria Solution]
0.0607

Return reported apparent KD of K4 kissing-loop reporter. Input sequence: CCGUGGAGUGAUGUUCCACGUUCUACGGAUACCAGCCACGCCAGCGGCCCUUGGCAGCCGCACCUUGCAGUGAUGUUGUGAGGCU [Same State Theophylline A GF 5]
0.365

Return reported apparent KD of K4 kissing-loop reporter. Input sequence: CACCAUGAAUUCUCUAGGAGUGAUGUUUUUCGAGGACCGGUACGGCCGCCACUCGGACGAGGACCCUGGGAGCGGCGAAGCGGCU [nigmullin]
0.235

Return reported apparent KD of K4 kissing-loop reporter. Input sequence: UUUUAAAUGUCUGAUACCAGAGAAAAUAUAUGUAGUGAUGUUAUAUACAAAAUAAAUAAGCUCCCUUGGCAGCAGUAUUAAUUUU [AstrosExc-TheB#6]
0.679

Return reported apparent KD of K4 kissing-loop reporter. Input sequence: AGGGCACUGGCGGCCGCCACUUUUCGUGCGAACCAAAGCUAGUGAUGUUGGCUCCCUAGUUGCAAAAGGACCGGGCCGUUCAUCU [theeternabot_sameState_KL_Trp_B_37]
0.315

Return reported apparent KD of K4 kissing-loop reporter. Input sequence: UGUCAUUGGUCGGCCGCCACUUCGUAUGAAGUGAUGUUUUGUAGAUUGUGUUGAAAGGUGUGGUGAAGGACCGGGACCGAUGACU [FiskerMod 23 - Jieux - Same State - Tryptophan B]
0.898

Return reported apparent KD of K4 kissing-loop reporter. Input sequence: AUAGGAUUGCGAGGAUAUCCUUCCCACGUCGAAGUACCGUGCUUGAUGGAGUGAUGUUCGAUCAGAGGAGAAGGUGCGGUUUUGU [Same State FMN B GF24]
0.292
